# EXPERIMENTAL SYSTEM: T1, mouse Ig1,2 TrkA (recombinant D4-D5 domain of murine TrkA receptor) (mouse, UniProt Q3UFB7 193-413)
# T1 construct: also called mTrkA Ig1,2
# T1 sequence (Q3UFB7 other isoform, or with tags, fused parts or gaps limits assumed): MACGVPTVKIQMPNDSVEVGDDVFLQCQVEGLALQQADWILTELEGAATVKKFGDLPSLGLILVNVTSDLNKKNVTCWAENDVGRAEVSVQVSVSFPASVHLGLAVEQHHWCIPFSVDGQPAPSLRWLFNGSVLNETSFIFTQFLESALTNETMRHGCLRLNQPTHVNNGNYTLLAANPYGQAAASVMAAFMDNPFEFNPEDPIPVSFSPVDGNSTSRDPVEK
# TEST SUMMARY: SPR (Biacore X-100); scFv immobilised on CM5 chip, mouse Ig1,2 TrkA injected
TEST READOUT: koff (s⁻¹)

- anti-TrkA scFv CRB0072 (scFv, From hSPLINT_09 selection) scFv: DIQMTQSPISLSATVGDRVTITCRASQSIGRYLNWYQQKPGKAPKLLIYGASSLESGVPSRFSGSGSGTVFTLTISGLQPEDFATYCCQQSHSTAWTFGQGTKVEIKSGGSTSGSGKPGSGEGSSGTEVQLVETGGGLVQPGSSLRLSCATSGFTFINYGVHWVRQPPGKGLEWVASIWYEGSNEKYADSVKGRFTISRDNSRYTLHLQLNSLRAEDTADYYCVRDRGTGDYRNSRFYYGMDVWGQGTTVTVSS: 4.93e-05

Provenance of the data: patent US20160244529A1
